# assay_system: T1, hu-M-IL1RAP construct, positions S21-T367 (extracellular domain of the membrane form of human IL1RAP) (human, UniProt Q9NPH3 21-367)
# T1 construct: Biotinylated when captured on the Biacore chip
# T1 sequence: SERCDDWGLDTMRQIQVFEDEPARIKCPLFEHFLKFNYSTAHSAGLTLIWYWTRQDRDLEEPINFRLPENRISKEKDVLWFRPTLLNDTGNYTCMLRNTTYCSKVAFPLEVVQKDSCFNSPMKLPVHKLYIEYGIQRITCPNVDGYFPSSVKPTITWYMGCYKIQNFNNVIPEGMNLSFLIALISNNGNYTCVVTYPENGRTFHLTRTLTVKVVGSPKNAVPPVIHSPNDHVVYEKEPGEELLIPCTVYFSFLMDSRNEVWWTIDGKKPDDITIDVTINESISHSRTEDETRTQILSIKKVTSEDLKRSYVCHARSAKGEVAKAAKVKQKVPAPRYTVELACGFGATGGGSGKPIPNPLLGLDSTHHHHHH
# assay_info: SPR, Fab analyte, 37 C
observation_type: koff (s⁻¹)

[[record]]
binder = "H3 Fab (VH V51S) (Fab, V domains shown, Fab with 8xHis tag) VH: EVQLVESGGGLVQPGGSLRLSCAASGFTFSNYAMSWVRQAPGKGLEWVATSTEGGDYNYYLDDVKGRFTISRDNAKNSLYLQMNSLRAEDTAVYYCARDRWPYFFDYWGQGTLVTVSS VL: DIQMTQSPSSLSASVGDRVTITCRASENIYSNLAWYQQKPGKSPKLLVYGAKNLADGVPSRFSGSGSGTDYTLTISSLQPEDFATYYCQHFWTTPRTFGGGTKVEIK"
units_text = "s⁻¹"
obs_value = 0.000602

[[record]]
binder = "H7 Fab (VH F29E/N57G/R96A) (Fab, V domains shown, Fab with 8xHis tag) VH: EVQLVESGGGLVQPGGSLRLSCAASGFTESNYAMSWVRQAPGKGLEWVATVTEGGDYGYYLDDVKGRFTISRDNAKNSLYLQMNSLRAEDTAVYYCARDAWPYFFDYWGQGTLVTVSS VL: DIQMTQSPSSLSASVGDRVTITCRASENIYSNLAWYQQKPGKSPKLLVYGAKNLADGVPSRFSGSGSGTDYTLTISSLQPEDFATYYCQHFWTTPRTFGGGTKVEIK"
units_text = "s⁻¹"
obs_value = 0.000511

[[record]]
binder = "H12 Fab (VH M34V) (Fab, V domains shown, Fab with 8xHis tag) VH: EVQLVESGGGLVQPGGSLRLSCAASGFTFSNYAVSWVRQAPGKGLEWVATVTEGGDYNYYLDDVKGRFTISRDNAKNSLYLQMNSLRAEDTAVYYCARDRWPYFFDYWGQGTLVTVSS VL: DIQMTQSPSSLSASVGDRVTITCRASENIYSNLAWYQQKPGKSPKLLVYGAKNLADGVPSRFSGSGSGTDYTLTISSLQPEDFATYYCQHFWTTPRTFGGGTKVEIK"
units_text = "s⁻¹"
obs_value = 0.00174

[[record]]
binder = "K17 Fab (VL A51Y/W92K) (Fab, V domains shown, Fab with 8xHis tag) VH: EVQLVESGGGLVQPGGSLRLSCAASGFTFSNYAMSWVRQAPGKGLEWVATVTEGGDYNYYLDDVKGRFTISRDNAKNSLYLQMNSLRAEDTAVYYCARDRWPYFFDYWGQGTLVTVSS VL: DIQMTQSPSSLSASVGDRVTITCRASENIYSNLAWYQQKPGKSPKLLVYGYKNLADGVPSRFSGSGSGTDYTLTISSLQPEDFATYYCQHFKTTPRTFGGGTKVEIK"
units_text = "s⁻¹"
obs_value = 0.000159

[[record]]
binder = "K13 Fab (VL A51Y/W92I) (Fab, V domains shown, Fab with 8xHis tag) VH: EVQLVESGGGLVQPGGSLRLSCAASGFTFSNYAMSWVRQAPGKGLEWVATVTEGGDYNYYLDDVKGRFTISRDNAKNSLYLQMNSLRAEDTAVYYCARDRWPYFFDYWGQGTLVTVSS VL: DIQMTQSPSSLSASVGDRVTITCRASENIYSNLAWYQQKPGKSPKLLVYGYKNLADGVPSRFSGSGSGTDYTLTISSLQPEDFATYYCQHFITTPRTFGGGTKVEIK"
units_text = "s⁻¹"
obs_value = 0.000117

[[record]]
binder = "H10 Fab (VH F29S/D55G/R96S) (Fab, V domains shown, Fab with 8xHis tag) VH: EVQLVESGGGLVQPGGSLRLSCAASGFTSSNYAMSWVRQAPGKGLEWVATVTEGGGYNYYLDDVKGRFTISRDNAKNSLYLQMNSLRAEDTAVYYCARDSWPYFFDYWGQGTLVTVSS VL: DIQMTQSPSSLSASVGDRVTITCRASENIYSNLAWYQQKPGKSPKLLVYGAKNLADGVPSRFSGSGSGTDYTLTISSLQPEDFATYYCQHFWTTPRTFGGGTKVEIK"
units_text = "s⁻¹"
obs_value = 0.000702

[[record]]
binder = "H9 Fab (VH G54V/R96A) (Fab, V domains shown, Fab with 8xHis tag) VH: EVQLVESGGGLVQPGGSLRLSCAASGFTFSNYAMSWVRQAPGKGLEWVATVTEGVDYNYYLDDVKGRFTISRDNAKNSLYLQMNSLRAEDTAVYYCARDAWPYFFDYWGQGTLVTVSS VL: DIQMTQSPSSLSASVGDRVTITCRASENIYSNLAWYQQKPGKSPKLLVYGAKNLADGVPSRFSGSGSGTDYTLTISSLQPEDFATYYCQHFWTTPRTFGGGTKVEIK"
units_text = "s⁻¹"
obs_value = 0.000401

[[record]]
binder = "H8 Fab (VH F29S/E52aV/R96A) (Fab, V domains shown, Fab with 8xHis tag) VH: EVQLVESGGGLVQPGGSLRLSCAASGFTSSNYAMSWVRQAPGKGLEWVATVTVGGDYNYYLDDVKGRFTISRDNAKNSLYLQMNSLRAEDTAVYYCARDAWPYFFDYWGQGTLVTVSS VL: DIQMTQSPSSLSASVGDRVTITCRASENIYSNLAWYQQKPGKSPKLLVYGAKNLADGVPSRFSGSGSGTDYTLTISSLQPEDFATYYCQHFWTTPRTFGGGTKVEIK"
units_text = "s⁻¹"
obs_value = 0.000899

[[record]]
binder = "H6 Fab (VH R96Q) (Fab, V domains shown, Fab with 8xHis tag) VH: EVQLVESGGGLVQPGGSLRLSCAASGFTFSNYAMSWVRQAPGKGLEWVATVTEGGDYNYYLDDVKGRFTISRDNAKNSLYLQMNSLRAEDTAVYYCARDQWPYFFDYWGQGTLVTVSS VL: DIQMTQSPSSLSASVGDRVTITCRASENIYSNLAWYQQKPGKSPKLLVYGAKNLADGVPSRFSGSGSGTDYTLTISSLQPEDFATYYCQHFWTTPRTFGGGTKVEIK"
units_text = "s⁻¹"
obs_value = 0.000708

[[record]]
binder = "H2 Fab (VH R96D) (Fab, V domains shown, Fab with 8xHis tag) VH: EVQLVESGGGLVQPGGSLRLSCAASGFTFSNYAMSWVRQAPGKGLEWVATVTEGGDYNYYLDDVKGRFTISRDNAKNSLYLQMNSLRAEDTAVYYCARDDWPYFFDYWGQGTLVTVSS VL: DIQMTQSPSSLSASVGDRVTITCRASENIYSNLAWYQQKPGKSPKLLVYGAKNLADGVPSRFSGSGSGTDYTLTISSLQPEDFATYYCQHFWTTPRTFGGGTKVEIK"
units_text = "s⁻¹"
obs_value = 0.000729

